These entries and their values trace back to the supplement of paper PMC10567573.

B1: CAMK2A (parent)
chain: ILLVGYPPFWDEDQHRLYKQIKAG

variants of: B1; assay: protein stability index of a GFP-peptide fusion (GPS, HEK-293T) (PSI 1-6); higher = more stable; details: c terminus: a fixed tail appended;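 also: lentivirally expressed fusions sorted by FACS into six bins by GFP to DsRed ratio, PSI derived from sequencing read proportions per bin multiplied by bin number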

mutant name	protein stability index
L2A	1.6
Q14P	3.6
G5N	1.99
I1Q	1.82
Y18C	1.73
L3V	2.35
G24D	1.87
K19R	1.36
R16Q	1.84
Q20F	2.69
Q14G	3.47
F9C	2.58
D11G	1.55
L17M	2.47
D11N	2.59
L3M	1.72
Q20D	1.9
G5E	3.74
E12W	2.32
L17W	2.09
E12N	1.42
Y18R	2.45
F9W	1.28
L17H	1.75
R16G	1.64
K19Y	3.14
G5F	3.4
